Measured pIC50 by item
# SYSTEM NAME: EGFR wild type (Homo sapiens, UniProt P00533)
# Construct: purchased Carna Bio
# Sequence (P00533 25-1210): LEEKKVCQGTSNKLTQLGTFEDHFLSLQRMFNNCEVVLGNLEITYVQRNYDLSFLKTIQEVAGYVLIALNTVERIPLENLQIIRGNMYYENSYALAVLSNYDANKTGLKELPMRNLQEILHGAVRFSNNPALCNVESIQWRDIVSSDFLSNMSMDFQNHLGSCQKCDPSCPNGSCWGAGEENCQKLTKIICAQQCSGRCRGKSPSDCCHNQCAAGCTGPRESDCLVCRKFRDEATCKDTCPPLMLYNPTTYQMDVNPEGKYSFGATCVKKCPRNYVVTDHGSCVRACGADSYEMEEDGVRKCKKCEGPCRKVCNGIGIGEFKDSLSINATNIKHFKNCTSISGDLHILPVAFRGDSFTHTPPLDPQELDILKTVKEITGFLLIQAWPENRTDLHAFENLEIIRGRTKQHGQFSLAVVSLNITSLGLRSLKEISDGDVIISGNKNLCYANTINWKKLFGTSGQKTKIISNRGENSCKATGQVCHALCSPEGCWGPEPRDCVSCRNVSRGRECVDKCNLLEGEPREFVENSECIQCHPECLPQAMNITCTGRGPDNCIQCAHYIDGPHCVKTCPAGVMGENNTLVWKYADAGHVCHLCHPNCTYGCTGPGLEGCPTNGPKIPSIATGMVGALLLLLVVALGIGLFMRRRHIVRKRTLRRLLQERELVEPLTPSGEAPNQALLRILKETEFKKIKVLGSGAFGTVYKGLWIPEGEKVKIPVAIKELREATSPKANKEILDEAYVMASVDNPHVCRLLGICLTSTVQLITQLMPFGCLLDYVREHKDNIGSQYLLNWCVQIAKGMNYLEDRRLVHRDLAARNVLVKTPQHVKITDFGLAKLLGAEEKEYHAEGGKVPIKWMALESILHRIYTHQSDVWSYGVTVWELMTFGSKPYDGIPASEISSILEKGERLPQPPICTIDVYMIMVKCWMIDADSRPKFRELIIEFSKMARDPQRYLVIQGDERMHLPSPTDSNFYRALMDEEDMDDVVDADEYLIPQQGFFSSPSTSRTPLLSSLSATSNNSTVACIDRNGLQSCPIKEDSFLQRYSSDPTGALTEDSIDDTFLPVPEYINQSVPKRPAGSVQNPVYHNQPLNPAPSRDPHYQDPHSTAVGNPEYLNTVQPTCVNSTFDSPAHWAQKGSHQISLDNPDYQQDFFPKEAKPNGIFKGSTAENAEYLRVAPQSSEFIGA
# MEASUREMENT PROTOCOL: Inhibition of EGFR wild type biochemical enzymatic activity (HTRF)
# EXPERIMENTAL CONTEXT: EGFR wild type, 1 mM ATP, 1 h at room temperature, read-out: IC50 @WT
pIC50: −log10 of the molar value.

Answered cases to consult:
Cc1cc2cc(n1)-c1cnn(C)c1OCCN1CCOCC(C1)n1c(nc3ccccc31)NC2=O (stereo not drawn) [Example B7B]: < 5.30
Cc1cc2cc(n1)-c1cnn(C)c1OCCN1CC3CCC(CC3)(C1)n1c(nc3ccc(N4CC5CCN(C)C5C4)cc31)NC2=O (stereo not drawn): < 5.30
Cc1cc2cc(n1)-c1cnn(C)c1OCCN1CC3CCC(C3)(C1)n1c(nc3ccc(N4CCC5(CN(C)C5)C4)cc31)NC2=O (single isomer, unassigned) [Example B50B]: 6.38
Cc1cc2cc(n1)-c1cnn(C)c1OCCN1CC3CCC(CC3)(C1)n1c(nc3ccc(N4CCN(C(C)C)CC4)cc31)NC2=O: < 5.30
Cc1cc2cc(n1)-c1cnn(C)c1OCCCCCn1c(nc3ccn(C)c(=O)c31)NC2=O: < 5.30

Now for a further molecule.
Exam item: pIC50 of COCCN(C)c1ccc2nc3n(c2c1)C12CCC(CN(CCOc4c(cnn4C)-c4cc(cc(C)n4)C(=O)N3)C1)C2 (single isomer, unassigned) [Example B46A] on EGFR wild type (Homo sapiens, UniProt P00533)?
Marked response: < 5.30

---

# SYSTEM NAME: EGFR L858R/T790M (Homo sapiens, UniProt P00533, L858R/T790M)
# Construct: purchased Carna Bio
# Sequence (P00533 25-1210 T790M/L858R): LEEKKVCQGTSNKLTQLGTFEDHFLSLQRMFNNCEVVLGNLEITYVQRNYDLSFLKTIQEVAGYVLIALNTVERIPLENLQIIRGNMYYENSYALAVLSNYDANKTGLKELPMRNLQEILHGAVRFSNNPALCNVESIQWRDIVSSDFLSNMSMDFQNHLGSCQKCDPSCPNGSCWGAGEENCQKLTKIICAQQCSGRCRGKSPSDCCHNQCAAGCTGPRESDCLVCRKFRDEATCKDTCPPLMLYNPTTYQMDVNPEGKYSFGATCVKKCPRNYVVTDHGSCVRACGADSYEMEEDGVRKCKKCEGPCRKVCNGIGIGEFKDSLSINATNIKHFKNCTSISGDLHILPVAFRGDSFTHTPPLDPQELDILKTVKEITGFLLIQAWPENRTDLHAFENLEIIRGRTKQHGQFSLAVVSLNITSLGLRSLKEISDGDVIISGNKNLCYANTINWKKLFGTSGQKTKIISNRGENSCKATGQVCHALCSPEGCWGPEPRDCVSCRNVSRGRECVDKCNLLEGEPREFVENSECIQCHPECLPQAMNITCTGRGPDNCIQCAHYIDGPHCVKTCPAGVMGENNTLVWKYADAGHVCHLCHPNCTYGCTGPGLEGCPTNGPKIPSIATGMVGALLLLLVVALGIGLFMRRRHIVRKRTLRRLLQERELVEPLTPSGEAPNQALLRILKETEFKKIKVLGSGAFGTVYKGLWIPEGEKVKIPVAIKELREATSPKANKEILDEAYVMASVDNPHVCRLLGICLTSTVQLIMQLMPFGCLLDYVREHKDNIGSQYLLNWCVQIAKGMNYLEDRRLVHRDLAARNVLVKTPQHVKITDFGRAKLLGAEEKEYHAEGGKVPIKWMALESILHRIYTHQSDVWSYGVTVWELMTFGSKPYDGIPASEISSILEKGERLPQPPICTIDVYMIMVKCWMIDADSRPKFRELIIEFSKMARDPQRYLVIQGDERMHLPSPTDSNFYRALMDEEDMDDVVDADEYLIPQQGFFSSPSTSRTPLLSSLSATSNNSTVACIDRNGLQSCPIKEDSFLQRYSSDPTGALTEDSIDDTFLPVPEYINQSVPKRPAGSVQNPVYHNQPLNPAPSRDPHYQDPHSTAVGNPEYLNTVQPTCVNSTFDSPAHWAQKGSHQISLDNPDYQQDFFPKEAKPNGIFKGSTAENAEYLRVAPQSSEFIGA
# MEASUREMENT PROTOCOL: Inhibition of EGFR L858R/T790M biochemical enzymatic activity (HTRF)
# EXPERIMENTAL CONTEXT: EGFR L858R-T790M, 1 mM ATP, 1 h, room temperature, read-out: IC50 (nM) @L858R-T790M
# Procedure: Biological Example 1: Inhibition of EGFR WT and Mutant Biochemical Enzymatic Activity The inhibition potency of compounds against these enzymes was assessed using Homogenous Time Resolved Fluorescence approach (HTRF, CisBio. Cat No. 62TKOPEJ). Inhibitory effects of the compounds were determined by measuring the enzymatic activity of EGFR enzyme phosphorylates 1 μM TK Substrate-biotin in the presence of 1 mM adenosine-5′-triphosphate (ATP) and varying concentrations of the test compound. […]
MEASURED METRIC: IC50 (nM)

Study these solved cases before continuing.
C[C@@H]1CCCOc2c(cnn2C)-c2cc(cn(C)c2=O)C(=O)Nc2nc3ccc(N4CCC(N5CCN(C)CC5)C4)cc3n2C1 (stereo partly drawn): 5.8
Cc1cc2cc(n1)-c1cnn(C)c1OCCN1CC3CCC(CC3)(C1)n1c(nc3ccc(N4CCN(C)CC4)cc31)NC2=O: 7.2

(I) CN(C)[C@@H]1CCN(c2ccc3nc4n(c3c2)C23CCC(CN(CCOc5c(cnn5C)-c5cc(cn(C)c5=O)C(=O)N4)C2)C3)C1 (single isomer, unassigned) [Example A66D]
(II) CN(C)CCN(C)c1ccc2nc3n(c2c1)C12CCC(CN(CCOc4c(cnn4C)-c4cc(cn(C)c4=O)C(=O)N3)C1)C2 (single isomer, unassigned) [Example A85B]
(III) CN1CCN(C2CCN(c3ccc4nc5n(c4c3)C34CCC(CN(CCOc6c(cnn6C)-c6cc(cn(C)c6=O)C(=O)N5)C3)C4)C2)CC1 (single isomer, unassigned) [Example A80B1]
(IV) C[C@@H]1CCCOc2c(cnn2CC(F)(F)F)-c2cc(cn(C)c2=O)C(=O)Nc2nc3ccc(N4CCN(C)CC4)cc3n2C1
Exam item: List the 4 entries from lowest IC50 to highest IC50 value. // list labels; follow requested order
Marked response: I, II, III, IV
(I: 1.7 nM, II: 3.1 nM, III: 7.8 nM, IV: 82 nM)

---

# SYSTEM NAME: EGFR[T790M/C797S/L858R] (Homo sapiens, UniProt P00533, C797S/L858R/T790M)
# Construct: purchased Carna Bio
# Sequence (P00533 25-1210 T790M/C797S/L858R): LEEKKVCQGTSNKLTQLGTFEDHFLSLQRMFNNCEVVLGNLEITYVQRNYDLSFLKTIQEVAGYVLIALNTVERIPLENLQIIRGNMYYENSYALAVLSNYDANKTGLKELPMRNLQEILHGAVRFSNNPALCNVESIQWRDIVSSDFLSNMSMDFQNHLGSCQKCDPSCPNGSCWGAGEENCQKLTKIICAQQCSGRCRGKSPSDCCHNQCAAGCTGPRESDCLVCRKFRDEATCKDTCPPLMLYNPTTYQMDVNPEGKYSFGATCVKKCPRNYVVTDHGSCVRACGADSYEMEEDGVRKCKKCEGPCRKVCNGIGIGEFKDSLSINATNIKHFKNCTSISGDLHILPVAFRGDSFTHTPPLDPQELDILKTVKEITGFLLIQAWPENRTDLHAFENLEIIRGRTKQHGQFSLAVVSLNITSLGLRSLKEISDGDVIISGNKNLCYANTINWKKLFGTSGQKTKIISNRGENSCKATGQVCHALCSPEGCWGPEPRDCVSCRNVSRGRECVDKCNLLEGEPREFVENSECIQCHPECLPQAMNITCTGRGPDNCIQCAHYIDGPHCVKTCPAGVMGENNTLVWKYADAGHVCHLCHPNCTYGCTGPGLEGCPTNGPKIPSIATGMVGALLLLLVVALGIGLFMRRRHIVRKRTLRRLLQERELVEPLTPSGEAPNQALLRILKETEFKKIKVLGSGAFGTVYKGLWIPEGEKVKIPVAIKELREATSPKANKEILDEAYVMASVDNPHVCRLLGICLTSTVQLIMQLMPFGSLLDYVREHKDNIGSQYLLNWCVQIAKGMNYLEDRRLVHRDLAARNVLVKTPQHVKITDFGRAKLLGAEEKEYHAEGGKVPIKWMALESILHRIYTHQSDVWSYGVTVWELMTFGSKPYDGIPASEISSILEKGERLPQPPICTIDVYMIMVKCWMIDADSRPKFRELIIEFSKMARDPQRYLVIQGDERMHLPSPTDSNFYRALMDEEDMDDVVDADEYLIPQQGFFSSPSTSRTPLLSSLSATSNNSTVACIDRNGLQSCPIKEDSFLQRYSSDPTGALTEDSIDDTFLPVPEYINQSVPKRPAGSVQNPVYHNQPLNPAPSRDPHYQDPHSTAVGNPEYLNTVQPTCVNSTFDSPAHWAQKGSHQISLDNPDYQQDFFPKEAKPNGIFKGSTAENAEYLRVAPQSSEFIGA
# MEASUREMENT PROTOCOL: Inhibition of EGFR[T790M/C797S/L858R] biochemical enzymatic activity (HTRF)
# EXPERIMENTAL CONTEXT: IC50 @T790M- C797S - L858R, EGFR[T790M/C797S/L858R], 1 mM ATP, 1 h at room temperature
pIC50: −log10 of the molar value.
MEASURED METRIC: pIC50

Cc1cc2cc(n1)-c1cnn(C)c1OCCN1CC3CCC(CC3)(C1)n1c(nc3ccc(N4CCC(N(C)C)CC4)cc31)NC2=O: 8.42

(A) Cc1cc2cc(n1)-c1cnn(C)c1OCCN1CC3CCC(C3)(C1)n1c(nc3ccc(N4CCC(N(C)C)CC4)cc31)NC2=O (single isomer, unassigned) [Example B40B]
(B) Cc1cc2cc(n1)-c1cnn(C)c1OCCCCCn1c(nc3ccc4c(c31)CCN(CCN(C)C)C4)NC2=O
Exam item: Hey, which is lower on measured pIC50, A or B ? Lab note: record the label of whichever item you select.
Marked response: B
(B: 8.27, A: 8.62)

---

# SYSTEM NAME: EGFR[T790M/C797S/L858R] (Homo sapiens, UniProt P00533, C797S/L858R/T790M)
# Construct: purchased Carna Bio
# MEASUREMENT PROTOCOL: Inhibition of EGFR[T790M/C797S/L858R] biochemical enzymatic activity (HTRF)
# EXPERIMENTAL CONTEXT: EGFR T790M-C797S-L858R, 1 mM ATP, 1 h, room temperature, read-out: IC50 (nM) @T790M- C797S - L858R
MEASURED METRIC: IC50 (nM)

# annotated cases, reported IC50 shown
C[C@@H]1CCCOc2c(cnn2C)-c2cc(cn(C)c2=O)C(=O)Nc2nc3ccc(N4CCN(C5CC5)CC4)cc3n2C1: 4.4
C[C@@H]1CCCOc2c(cnn2C)-c2cc(cn(C)c2=O)C(=O)Nc2nc3ccc(N4CCNCC4)c(Cl)c3n2C1: 2.7

(a) Cc1cc2cc(n1)-c1cnn(C)c1OCCN1CC3CCC(CC3)(C1)n1c(nc3ccc(N4CCOCC4)cc31)NC2=O
(b) CN1CCC2(CC1)CN(c1ccc3nc4n(c3c1)C13CCC(CN(CCOc5c(cnn5C)-c5cc(cn(C)c5=O)C(=O)N4)C1)C3)C2 (single isomer, unassigned) [Example A77B]
Exam item: Looking only at measured IC50, which entry is lower, a or b ? Your answer should be the label attached to the chosen record.
Marked response: b
(b: 3.4 nM, a: 36 nM)

---

# Test system: Ba/F3 cells expressing EGFR mutations
# MEASUREMENT PROTOCOL: Cell proliferation assay, Ba/F3 cells expressing EGFR mutations (CellTiter-Glo, 72 hours)
# Type: cell-based
# EXPERIMENTAL CONTEXT: BaF3 cells, EGFR DEL19 - C797S, read-out: GI50 DEL19 - C797S/BaF3
MEASURED METRIC: GI50 (nM)

Cc1cc2cc(n1)-c1cnn(C)c1OCCN1CC3CCC(C3)(C1)n1c(nc3ccc(N4CCC(N5CCOCC5)C4)cc31)NC2=O (single isomer, unassigned) [Example B44A]: 312
Cc1cc2cc(n1)-c1cnn(C)c1OCCN1CC3CCC(C3)(C1)n1c(nc3ccc(N4CCC5(CN(C)C5)C4)cc31)NC2=O (single isomer, unassigned) [Example B50A]: 302
Cc1cc2cc(n1)-c1cnn(C)c1OCCN1CC3CCC(C3)(C1)n1c(nc3ccc(N4CCOCC4)cc31)NC2=O (single isomer, unassigned) [Example B10B]: 403
Cc1cc2cc(n1)-c1cnn(C)c1OCCN1CC3CCC(C3)(C1)n1c(nc3ccc(N4CCC(N5CCN(C)CC5)C4)cc31)NC2=O (single isomer, unassigned) [Example B49B]: 2
CCN1CCN(c2ccc3nc4n(c3c2)C23CCC(CN(CCOc5c(cnn5C)-c5cc(cc(C)n5)C(=O)N4)C2)C3)CC1 (single isomer, unassigned) [Example B56B]: 2

(A) Cc1cc2cc(n1)-c1cnn(C)c1OCCN1CC3CCC(C3)(C1)n1c(nc3ccc(N4CCC(N(C)C)CC4)cc31)NC2=O (single isomer, unassigned) [Example B40B]
(B) Cc1cc2cc(n1)-c1cnn(C)c1OCCN1CC3CCC(C3)(C1)n1c(nc3ccc(N4CCC5(CCN(C)CC5)C4)cc31)NC2=O (single isomer, unassigned) [Example B51A]
(C) Cc1cc2cc(n1)-c1cnn(C)c1OCCN1CC3CCC(C3)(C1)n1c(nc3ccc(N4CC5CN(C)CC5C4)cc31)NC2=O (single isomer, unassigned) [Example B43A]
Exam item: Rank items: key GI50, increasing. Put the labels in the requested order and write them down.
Marked response: A, C, B
